src = ChEMBL document CHEMBL1134914

For each of the molecules below, state its pIC50.
- subject_of_test: Caspase-8 (Homo sapiens, UniProt Q14790)
- Sequence (Q14790 217-374 limits assumed): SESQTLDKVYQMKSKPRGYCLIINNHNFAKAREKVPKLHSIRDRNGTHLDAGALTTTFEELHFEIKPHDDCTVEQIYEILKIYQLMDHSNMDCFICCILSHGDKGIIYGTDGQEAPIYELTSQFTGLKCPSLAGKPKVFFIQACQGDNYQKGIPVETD
- Sequence (Q14790 385-479 limits assumed): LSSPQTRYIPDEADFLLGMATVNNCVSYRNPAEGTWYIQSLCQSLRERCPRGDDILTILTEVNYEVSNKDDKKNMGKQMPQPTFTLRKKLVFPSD
- assay_procedure: Inhibitory concentration against caspase-8
Remember the convention: pIC50 equals -log10 of concentration in molar.

Entry CC(C)C[C@H](NC(=O)COc1cccc(-c2ccccc2)c1)C(=O)N[C@H]1CC(=O)OC1O (stereo partly drawn) , tested on Caspase-8 (Homo sapiens, UniProt Q14790), has a reported pIC50 of 5.41

Form field pIC50 for item CC(C)C[C@H](NC(=O)CCc1cccc2ccccc12)C(=O)N[C@H]1CC(=O)OC1O (stereo partly drawn) on Caspase-8 (Homo sapiens, UniProt Q14790): 4.91

For the molecule CC(C)C[C@H](NC(=O)/C=C/c1ccccc1)C(=O)N[C@H]1CC(=O)OC1O (stereo partly drawn) , the measured pIC50 on Caspase-8 (Homo sapiens, UniProt Q14790) was 4.87

Noted pIC50 for Cc1ccc(OCC(=O)N[C@@H](CC(C)C)C(=O)N[C@H]2CC(=O)OC2O)c(C23CC4CC(CC(C4)C2)C3)c1 (stereo partly drawn) , tested on Caspase-8 (Homo sapiens, UniProt Q14790): 5.41

So the reported pIC50 for CC(C)C[C@H](NC(=O)COc1ccccc1OCc1ccccc1)C(=O)N[C@H]1CC(=O)OC1O (stereo partly drawn) , on Caspase-8 (Homo sapiens, UniProt Q14790), turned out to be 5.36

The reported pIC50 value, Caspase-8 (Homo sapiens, UniProt Q14790), for CC(C)C[C@H](NC(=O)COc1cccc2c1CCCC2)C(=O)N[C@H]1CC(=O)OC1O (stereo partly drawn) reads 5.76

Per the reported Caspase-8 (Homo sapiens, UniProt Q14790) data, CC(C)C[C@H](NC(=O)CSc1ccc2ccccc2c1)C(=O)N[C@H]1CC(=O)OC1O (stereo partly drawn) has pIC50 of 4.96

Test item CC(C)C[C@H](NC(=O)COc1ccc(Cc2ccccc2)cc1)C(=O)N[C@H]1CC(=O)OC1O (stereo partly drawn) ; Caspase-8 (Homo sapiens, UniProt Q14790); reported pIC50 was 5.33

Lab entry: Caspase-8 (Homo sapiens, UniProt Q14790) assay, molecule CC(C)C[C@H](NC(=O)COc1ccccc1-c1ccccc1)C(=O)N[C@H]1CC(=O)OC1O (stereo partly drawn) , pIC50 = 5.77

Kindly note: Caspase-8 (Homo sapiens, UniProt Q14790), CC(C)C[C@H](NC(=O)COc1ccc(-c2ccccc2)cc1)C(=O)N[C@H]1CC(=O)OC1O (stereo partly drawn) , pIC50 value reported: 5.12

Log: Caspase-8 (Homo sapiens, UniProt Q14790), molecule CC(C)C[C@H](NC(=O)COc1ccc(Cl)c2ccccc12)C(=O)N[C@H]1CC(=O)OC1O (stereo partly drawn) , pIC50 = 5.77

Given the molecule CC(C)C[C@H](NC(=O)COc1cccc2ccccc12)C(=O)N[C@H]1CC(=O)OC1O (stereo partly drawn) and test system Caspase-8 (Homo sapiens, UniProt Q14790), the measured pIC50 is 6.11

The value of pIC50 recorded for CC(C)C[C@H](NC(=O)COc1cccc2cnccc12)C(=O)N[C@H]1CC(=O)OC1O (stereo partly drawn) when tested on Caspase-8 (Homo sapiens, UniProt Q14790) reads 5.44

Here COc1ccc(OCC(=O)N[C@@H](CC(C)C)C(=O)N[C@H]2CC(=O)OC2O)c2ccccc12 (stereo partly drawn) was tested on Caspase-8 (Homo sapiens, UniProt Q14790), and its pIC50 came to 5.84
